# protocolNotes: Subcutaneous Pentylenetetrazol (Metrazol) Seizure Threshold Test
# Format: in vivo, male Carworth Farms #1 mice or Sprague-Dawley rats
# conditionSet: Table X; IP; challenge time 30 min
measureName: Lowest effective dose, Metrazol (Phase I)

[
  {
    "compound": "CCCC(C)C1(CC)C(=O)[N-]C(=S)NC1=O.CCCC(C)C1(CC)C(=O)[N-]C(=S)NC1=O.[Cu+2] (centres unmarked)",
    "result": "I"
  },
  {
    "compound": "CCC1(CCC(C)C)C(=O)[N-]C(=O)NC1=O.CCC1(CCC(C)C)C(=O)[N-]C(=O)NC1=O.O.O.[Cu+2]",
    "result": "100 milligrams per kilogram of bod"
  },
  {
    "compound": "CCC1(CCC(C)C)C(=O)[N-]C(=O)NC1=O.CCC1(CCC(C)C)C(=O)[N-]C(=O)NC1=O.[Cu+2].c1ccncc1.c1ccncc1",
    "result": "100 milligrams per kilogram of bod"
  },
  {
    "compound": "CCC1(c2ccccc2)C(=O)[N-]C(=O)NC1=O.CCC1(c2ccccc2)C(=O)[N-]C(=O)NC1=O.[Cu+2].c1c[nH]cn1.c1c[nH]cn1",
    "result": "300 milligrams per kilogram of bod"
  },
  {
    "compound": "CCC1(c2ccccc2)C(=O)[N-]C(=O)NC1=O.CCC1(c2ccccc2)C(=O)[N-]C(=O)NC1=O.CCC1(c2ccccc2)C(=O)[N-]C(=O)NC1=O.CCC1(c2ccccc2)C(=O)[N-]C(=O)NC1=O.O.O.O.O.O.O.O.O.O.O.O.[Cu+2].[Cu+2]",
    "result": "5 milligrams per kilogram of bod"
  },
  {
    "compound": "CCC1(CCC(C)C)C(=O)[N-]C(=O)NC1=O.CCC1(CCC(C)C)C(=O)[N-]C(=O)NC1=O.[Cu+2].c1c[nH]cn1.c1c[nH]cn1",
    "result": "300 milligrams per kilogram of bod"
  }
]

Input: Output Lowest effective dose, Metrazol (Phase I) of CCC1(c2ccccc2)NC(=O)NC1=O.CO.[OH][Cu][Cl] (centres unmarked)
Output: 30 milligrams per kilogram of bod

Input: Output Lowest effective dose, Metrazol (Phase I) of CCCC(C)C1(CC)C(=O)N=C([S-])NC1=O.CCCC(C)C1(CC)C(=O)N=C([S-])NC1=O.O.O.[Cu+2] (centres unmarked) [Cu(II)(S--thiopental)2 (H2 O)2]
Output: I

Input: Output Lowest effective dose, Metrazol (Phase I) of `CCC1(CCC(C)C)C(=O)[N-]C(=O)NC1=O.CCC1(CCC(C)C)C(=O)[N-]C(=O)NC1=O.CCC1(CCC(C)C)C(=O)[N-]C(=O)NC1=O.CCC1(CCC(C)C)C(=O)[N-]C(=O)NC1=O.O.O.O.O.O.[Cu+2].[Cu+2]`
Output: 30 milligrams per kilogram of bod

Input: Output Lowest effective dose, Metrazol (Phase I) of `CN1C(=O)CN=C(c2ccccc2)c2cc(Cl)ccc21.CN1C(=O)CN=C(c2ccccc2)c2cc(Cl)ccc21.[Cl-].[Cl-].[Cu+2]`
Output: 30 milligrams per kilogram of bod

Input: Output Lowest effective dose, Metrazol (Phase I) of `CCC1(c2ccccc2)C(=O)[N-]C(=O)NC1=O.CCC1(c2ccccc2)C(=O)[N-]C(=O)NC1=O.[Cu+2].c1ccncc1.c1ccncc1`
Output: 30 milligrams per kilogram of bod
